Tested on: NCI-H226 lung
Assay: NCI tumour cell line growth inhibition, 48 h
Some compounds, each annotated with its measured TGI.
quantity measured: TGI (µM)

compound: CC(C)(C)c1ccc(S(=O)(=O)N[C@H]2CC[C@H]3[C@@H]4CCc5cc(O)ccc5[C@H]4CC[C@]23C)cc1
quantity measured: TGI
limit sign: =
test value: 3.51

compound: O=C(Nc1ccccc1)N1N=C(c2ccccc2)C1c1ccccc1 (stereo not given)
quantity measured: TGI
limit sign: =
test value: 37.3

compound: CC(=O)c1nccc2c1c(C)nc1ccccc12
quantity measured: TGI
limit sign: =
test value: 67.9

compound: CCOC(=O)C1=C(c2ccccc2)N(Cc2ccccc2)C2(O)C=CC(=O)C3C(=O)N(c4ccccc4)C(=O)C132 (stereo not given)
quantity measured: TGI
limit sign: =
test value: 4.87

compound: COc1cc2c(c(OC)c1OC)-c1ccc(SC)c(=O)cc1[C@@H](NC(=O)c1ccc(C#N)cc1)CC2
quantity measured: TGI
limit sign: <
test value: 0.01
